The measurements presented in this section are drawn from ChEMBL document CHEMBL4007442.

test.target: Sphingosine kinase 1 (Homo sapiens)
Sequence (Q9NYA1 whole entry): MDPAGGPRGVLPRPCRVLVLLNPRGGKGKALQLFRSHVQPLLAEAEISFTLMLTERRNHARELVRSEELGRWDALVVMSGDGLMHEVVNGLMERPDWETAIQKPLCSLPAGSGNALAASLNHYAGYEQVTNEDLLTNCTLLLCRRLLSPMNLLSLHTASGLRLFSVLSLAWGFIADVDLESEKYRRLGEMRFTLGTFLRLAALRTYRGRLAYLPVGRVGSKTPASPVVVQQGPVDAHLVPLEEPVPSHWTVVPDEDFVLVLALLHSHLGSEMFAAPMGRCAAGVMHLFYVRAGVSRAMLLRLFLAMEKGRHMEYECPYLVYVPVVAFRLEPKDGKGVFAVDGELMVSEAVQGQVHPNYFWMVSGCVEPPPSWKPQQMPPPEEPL
protocol.text: Inhibition of human C-terminal His6-tagged SPHK1 expressed in fall armyworm sf9 cells assessed as reduction in S1P formation using sphingosine as substrate after 1 hr by FITC-based caliper assay
pIC50: −log10 of the molar value.
Each entry below carries its reported pIC50.

The examples below pair each entry with its known result.
| chemical.structure | observed.measurement |
| --- | --- |
| Cc1nc2ccc(-c3ccc(CN4CCC[C@H]4CO)cc3)cc2n1C[C@H]1CCCO1 | < 4.00 |
| Cc1nc2ccc(-c3ccc(CN4CCC[C@H]4CO)cc3)cc2n1C[C@@H]1CCCO1 | < 4.00 |

Which value of pIC50 has been reported for OC[C@H]1CCCN1Cc1ccc(COc2cccc(C3CCCCC3)c2)cc1 in the records?
> 8.77
